meta.source: ChEMBL document CHEMBL1961873

- Measurement Target: Aurora kinase B (Homo sapiens);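 also: reported percent inhibition is a mean value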
- Measurement Context: at 1 µM
The label depends only on inhibition: T if it is at least 8%, F if it is smaller.

NS(=O)(=O)c1ccc(Nc2ncc(-c3ccccc3)o2)cc1; T
CNC(=O)c1cc(-c2ccc(F)cc2)cc(-c2ccc(S(=O)(=O)N3CCCC3)cc2)c1N; F
COc1cc2c(cc1Nc1nc(Nc3ccsc3C(N)=O)c3cc[nH]c3n1)N(C(=O)CN(C)C)CCC2(C)C; T
Clc1ccc(-c2nn3ncccc3c2-c2ccnc(Nc3ccccc3)n2)cc1; T
O=C(Nc1n[nH]c2cc(-c3ccc(F)cc3)ccc12)C1CC1; F

Reported inhibition reaches at least 8% for `CCOc1ccc2c(-c3ccnc(Nc4cccc(C(F)(F)F)c4)n3)cnn2n1` ? T

Test whether the molecule `CCn1c(-c2nonc2N)nc2ccccc21` records inhibition of 8% or higher. F

Could you please find out whether `CN(C)CCOc1ccc(-c2nc(-c3ccncc3)c(-c3ccc4c(c3)CC/C4=N\O)[nH]2)cc1` has inhibition that meets 8% or exceeds it? F

Please indicate if the recorded inhibition for CC1=C(C(=O)Nc2cc(Cl)c3[nH]ncc3c2)C(c2ccc(C(F)(F)F)cc2)CC(=O)N1 (stereo not given) meets or exceeds 8%. T

Determine whether measured inhibition meets or exceeds 8% for `CCn1c(-c2nonc2N)nc2c(C#CC(C)(C)O)nc(OC[C@H](N)c3ccccc3)cc21` F

For this molecule, is measured inhibition 8% or higher? `COc1ccc(-c2nn3ncccc3c2-c2ccnc(Nc3ccc4c(c3)OCCO4)n2)cc1` T

Please tell me: is the molecule `N#Cc1c(NC(=O)CN2CCOCC2)sc2c1CCCC2` at or over 8% in terms of inhibition? T

Is reported inhibition greater than or equal to 8% here: `Fc1ccc(-c2nn3ncccc3c2-c2ccnc(Nc3ccc4c(c3)OCCO4)n2)cc1` T

Hi, just wondering whether `CCCN(CCS(C)(=O)=O)Cc1ccc(-c2ccc3ncnc(Nc4ccc(OCc5cccc(F)c5)c(Cl)c4)c3c2)o1` shows inhibition of 8% or higher. T

* * *

- Measurement Target: Sphingosine kinase 1 (Homo sapiens);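 also: mean SPHK1 inhibition value reported from the GSK PKIS kinase panel screen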
- Measurement Context: at 1 µM
Observable: inhibition (%)
Answer format: numeric, % implied, no suffix.

c1cc(-c2cnn3nc(N4CCOCC4)ccc23)nc(NC2CC2)n1; 0.41

Check Sphingosine kinase 1 (Homo sapiens) data and give inhibition for `CNC(=O)c1cccc(C#Cc2cncnc2Nc2ccc(OCc3cccc(F)c3)c(Cl)c2)c1` . 2.62

* * *

- Measurement Target: Tyrosine-protein kinase SYK (Homo sapiens) (UniProt P43405)
- Measurement Context: at 1 µM
- Description: GSK_PKIS: SYK mean inhibition at 1 uM [Nanosyn]
Observable: inhibition (%)
Answer in %, number only, no unit symbol.

Study these solved cases before continuing.
Clc1ccc(-c2nn3ncccc3c2-c2ccnc(Nc3ccccc3)n2)cc1; 2.04
CC1=C(C(=O)Nc2cc(Cl)c3[nH]ncc3c2)C(c2ccc(C(F)(F)F)cc2)CC(=O)N1 (stereo not drawn); 1.05
COc1ccc(-c2oc3ncnc(N)c3c2-c2ccc(NC(=O)Nc3cc(C(F)(F)F)ccc3F)cc2)cc1; -8.92
COC(=O)Nc1nc2ccc(S(=O)(=O)c3ccc(NC(=O)Nc4cc(C(F)(F)F)ccc4F)cc3)cc2[nH]1; 0.05
Cc1cccc(Nc2ncc(-c3ccccc3)o2)c1; 2.98

Let's switch to this compound now.
For the compound `COc1ccc(-c2cc(-c3c[nH]nc3-c3ccccn3)ccn2)cc1` , give its reported inhibition. -0.69

* * *

- Measurement Target: Dual specificity protein kinase CLK2 (Homo sapiens) (UniProt P49760)
- Sequence (P49760 whole entry, looked up): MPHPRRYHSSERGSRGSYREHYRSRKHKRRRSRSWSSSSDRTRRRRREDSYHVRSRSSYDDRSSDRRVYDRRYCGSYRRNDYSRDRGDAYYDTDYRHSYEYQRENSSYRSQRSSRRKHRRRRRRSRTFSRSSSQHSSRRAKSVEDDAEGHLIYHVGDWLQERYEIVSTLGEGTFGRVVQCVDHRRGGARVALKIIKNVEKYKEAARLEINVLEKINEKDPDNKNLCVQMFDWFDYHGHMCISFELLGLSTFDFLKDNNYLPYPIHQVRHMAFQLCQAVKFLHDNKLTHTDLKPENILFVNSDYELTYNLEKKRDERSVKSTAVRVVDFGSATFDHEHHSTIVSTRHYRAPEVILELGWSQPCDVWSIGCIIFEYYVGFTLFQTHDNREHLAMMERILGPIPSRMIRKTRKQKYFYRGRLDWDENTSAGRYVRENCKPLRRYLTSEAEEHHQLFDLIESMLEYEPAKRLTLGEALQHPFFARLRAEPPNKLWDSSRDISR
- Measurement Context: at 0.1 µM
- Description: GSK_PKIS: CLK2 mean inhibition at 0.1 uM [Nanosyn]
Recorded inhibition values for a group of compounds are listed next.
Reply numerically in %, unit not repeated.

CN1CCC(n2cnc(-c3ccc(F)cc3)c2-c2ccnc(Nc3ccccc3)n2)CC1; 1.64

Write down measured inhibition (Dual specificity protein kinase CLK2 (Homo sapiens) (UniProt P49760)) for this compound. `N#Cc1c(NC(=O)CN2CCOCC2)sc2c1CCCC2` 1.09

* * *

Some molecules, each annotated with its measured inhibition.
- Tested on: Epidermal growth factor receptor (Homo sapiens), P00533 [L858R]
- Sequence (P00533 whole entry L858R): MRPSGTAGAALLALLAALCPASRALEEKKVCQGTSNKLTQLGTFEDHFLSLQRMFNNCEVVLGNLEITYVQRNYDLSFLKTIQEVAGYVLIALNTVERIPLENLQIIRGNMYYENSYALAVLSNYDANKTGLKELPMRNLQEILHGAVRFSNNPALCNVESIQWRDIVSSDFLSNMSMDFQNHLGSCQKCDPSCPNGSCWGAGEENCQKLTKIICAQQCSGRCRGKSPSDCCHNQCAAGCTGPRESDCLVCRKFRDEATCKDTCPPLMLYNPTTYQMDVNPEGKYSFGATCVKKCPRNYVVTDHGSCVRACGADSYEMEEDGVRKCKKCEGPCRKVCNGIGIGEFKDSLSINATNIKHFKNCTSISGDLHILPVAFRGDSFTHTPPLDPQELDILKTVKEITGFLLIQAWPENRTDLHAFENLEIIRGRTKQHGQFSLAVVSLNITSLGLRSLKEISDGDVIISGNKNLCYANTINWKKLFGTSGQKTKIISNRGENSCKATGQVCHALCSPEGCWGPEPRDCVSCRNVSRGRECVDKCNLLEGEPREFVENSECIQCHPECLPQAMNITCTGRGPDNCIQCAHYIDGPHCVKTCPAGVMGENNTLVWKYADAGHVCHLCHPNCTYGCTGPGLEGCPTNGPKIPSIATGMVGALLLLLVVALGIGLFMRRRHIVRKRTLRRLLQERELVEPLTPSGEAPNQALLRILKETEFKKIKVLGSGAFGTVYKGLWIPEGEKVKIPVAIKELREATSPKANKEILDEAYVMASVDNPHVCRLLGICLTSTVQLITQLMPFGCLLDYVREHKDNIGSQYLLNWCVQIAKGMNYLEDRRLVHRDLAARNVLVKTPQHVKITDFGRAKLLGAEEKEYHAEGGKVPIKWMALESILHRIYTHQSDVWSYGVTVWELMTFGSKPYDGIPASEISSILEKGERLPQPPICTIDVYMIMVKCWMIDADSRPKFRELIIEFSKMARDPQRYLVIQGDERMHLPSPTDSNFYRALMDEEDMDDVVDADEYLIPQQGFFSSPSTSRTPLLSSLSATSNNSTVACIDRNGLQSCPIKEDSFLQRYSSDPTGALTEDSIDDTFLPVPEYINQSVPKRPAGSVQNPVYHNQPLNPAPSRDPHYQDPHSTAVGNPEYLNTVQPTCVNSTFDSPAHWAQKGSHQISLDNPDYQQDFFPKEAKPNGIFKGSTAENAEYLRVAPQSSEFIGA
- Measurement Context: at 0.1 µM
Report as a plain number; the unit % is understood.

Here are 4 molecules together with their reported answers.
Fc1cccc(COc2ccc(Nc3ncnc4sc(-c5ccco5)cc34)cc2Cl)c1; 15.2
Cc1cccc(Nc2ncc(-c3ccccc3)o2)c1; 0.79
CCn1c(-c2nonc2N)nc2cnc(Oc3cccc(NC(=O)c4ccc(N(C)C)cc4)c3)cc21; 1.49
CCNC(=O)O[C@H]1CN[C@H](C#Cc2cc3ncnc(Nc4ccc(OCc5cccc(F)c5)c(Cl)c4)c3s2)C1; 32.5

For the molecule `c1ccc(-c2nc3n(c2-c2ccc4c(c2)OCO4)CCC3)nc1` , give its measured inhibition value. 0.88

Fill in inhibition for record `CCn1c(-c2nonc2N)nc2c(C#CC(C)(C)O)ncc(OC3CCNCC3)c21` -0.6

For the molecule `COc1cc(Nc2nccc(Nc3ccc4c(C)n[nH]c4c3)n2)cc(OC)c1OC` , report inhibition. 3.36

* * *

Overview of reported inhibition across a group of compounds:
- Measurement Target: Serine/threonine-protein kinase Sgk3 (Homo sapiens) (UniProt Q96BR1);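 also: each value is a mean of replicate inhibition readings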
- Sequence (Q96BR1 whole entry): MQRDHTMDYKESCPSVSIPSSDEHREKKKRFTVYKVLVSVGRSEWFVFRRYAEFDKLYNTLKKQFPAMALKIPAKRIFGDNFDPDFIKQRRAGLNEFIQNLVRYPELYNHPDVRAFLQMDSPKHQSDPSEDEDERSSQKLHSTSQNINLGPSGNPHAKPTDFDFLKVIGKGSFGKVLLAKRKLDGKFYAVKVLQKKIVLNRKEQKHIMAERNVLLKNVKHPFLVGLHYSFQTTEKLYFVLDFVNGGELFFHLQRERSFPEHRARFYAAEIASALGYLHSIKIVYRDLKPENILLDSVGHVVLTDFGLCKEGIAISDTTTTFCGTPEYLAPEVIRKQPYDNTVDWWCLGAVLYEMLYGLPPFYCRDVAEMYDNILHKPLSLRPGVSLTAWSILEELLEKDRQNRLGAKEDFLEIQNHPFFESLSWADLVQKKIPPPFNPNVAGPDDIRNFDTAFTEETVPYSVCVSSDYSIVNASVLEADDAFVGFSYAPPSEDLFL
- Measurement Context: at 1 µM
Report as a plain number; the unit % is understood.

// below: answered compounds
NS(=O)(=O)c1ccc(N/N=C2\C(=O)Nc3ccc4ncccc4c32)cc1; 10.2
Cc1ccc2c(-c3ccnc(Nc4ccccc4)n3)c(-c3ccc(F)cc3)nn2n1; 2.1
CCCN(CCS(C)(=O)=O)Cc1ccc(-c2ccc3ncnc(Nc4ccc(OCc5cccc(F)c5)c(Cl)c4)c3c2)o1; 1.28
COc1ccc(-c2cc3c(N)ncnc3o2)cc1; -2.55
CCOc1ccc2c(-c3ccnc(Nc4cccc(C(F)(F)F)c4)n3)cnn2n1; 2.4

Report inhibition for `[O-][S+]1CCN(Cc2ccc(-c3ccc4ncnc(Nc5ccc(OCc6cccc(F)c6)c(Cl)c5)c4c3)o2)CC1` 3.72

Report inhibition, nothing else, for this compound: `Nc1nc(-c2ccc(F)cc2)c(-c2ccc3ncccc3n2)s1` 3.66

Quote inhibition reported for `O=S(=O)(CCNCc1ccc(-c2ccc3ncnc(Nc4ccc(OCc5cccc(F)c5)c(Cl)c4)c3c2)o1)c1ccccc1` please. 5.71

* * *

- Measurement Target: Serine/threonine-protein kinase 10 (Homo sapiens) (UniProt O94804);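 also: reported value is the mean percent inhibition of LOK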
- Sequence (O94804 whole entry, looked up): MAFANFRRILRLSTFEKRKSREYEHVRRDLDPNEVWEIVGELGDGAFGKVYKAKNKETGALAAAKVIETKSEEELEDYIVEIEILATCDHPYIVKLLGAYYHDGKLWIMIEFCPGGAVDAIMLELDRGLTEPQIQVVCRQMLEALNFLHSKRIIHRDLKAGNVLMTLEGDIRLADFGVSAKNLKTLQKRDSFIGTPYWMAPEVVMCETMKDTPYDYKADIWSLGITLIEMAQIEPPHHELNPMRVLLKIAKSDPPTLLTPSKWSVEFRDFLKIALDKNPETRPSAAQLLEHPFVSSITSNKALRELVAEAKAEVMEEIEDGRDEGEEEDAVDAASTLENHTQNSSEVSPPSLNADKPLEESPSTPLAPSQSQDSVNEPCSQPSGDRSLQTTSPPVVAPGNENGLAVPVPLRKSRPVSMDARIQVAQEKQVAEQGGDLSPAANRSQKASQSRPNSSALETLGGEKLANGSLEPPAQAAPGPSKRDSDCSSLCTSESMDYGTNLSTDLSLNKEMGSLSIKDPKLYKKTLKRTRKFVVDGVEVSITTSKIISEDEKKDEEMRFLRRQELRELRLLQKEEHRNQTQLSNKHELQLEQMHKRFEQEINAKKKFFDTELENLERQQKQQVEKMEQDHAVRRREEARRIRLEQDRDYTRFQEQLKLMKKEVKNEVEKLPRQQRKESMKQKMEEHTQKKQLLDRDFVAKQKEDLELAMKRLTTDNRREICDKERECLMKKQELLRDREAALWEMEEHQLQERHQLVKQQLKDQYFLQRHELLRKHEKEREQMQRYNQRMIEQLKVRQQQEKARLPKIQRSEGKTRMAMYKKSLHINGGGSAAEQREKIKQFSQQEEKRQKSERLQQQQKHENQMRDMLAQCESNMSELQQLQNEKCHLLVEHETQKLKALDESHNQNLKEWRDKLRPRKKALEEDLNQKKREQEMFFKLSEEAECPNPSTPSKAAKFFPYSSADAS
- Measurement Context: at 1 µM
Parameter: inhibition. Scope: all listed entries.
Numeric answer only, unit % assumed.

COc1cc(/C=N/Nc2ncnc3[nH]ncc23)ccc1O; 19.5
COc1cc(Nc2nccc(Nc3ccc4c(C)n[nH]c4c3)n2)cc(OC)c1OC; 77.6
COc1cccc(-c2c[nH]c3c(N/N=C/c4ccncc4)ncnc23)c1; 35.4

Give the value of inhibition reported for the following: `CC(=O)Nc1cccc(C#Cc2cncnc2Nc2ccc(OCc3cccc(F)c3)c(Cl)c2)c1` 4.01

* * *

inhibition values by entry
- Tested on: Receptor-type tyrosine-protein kinase FLT3 (Homo sapiens), P36888 [D835Y]
- Sequence (whole entry): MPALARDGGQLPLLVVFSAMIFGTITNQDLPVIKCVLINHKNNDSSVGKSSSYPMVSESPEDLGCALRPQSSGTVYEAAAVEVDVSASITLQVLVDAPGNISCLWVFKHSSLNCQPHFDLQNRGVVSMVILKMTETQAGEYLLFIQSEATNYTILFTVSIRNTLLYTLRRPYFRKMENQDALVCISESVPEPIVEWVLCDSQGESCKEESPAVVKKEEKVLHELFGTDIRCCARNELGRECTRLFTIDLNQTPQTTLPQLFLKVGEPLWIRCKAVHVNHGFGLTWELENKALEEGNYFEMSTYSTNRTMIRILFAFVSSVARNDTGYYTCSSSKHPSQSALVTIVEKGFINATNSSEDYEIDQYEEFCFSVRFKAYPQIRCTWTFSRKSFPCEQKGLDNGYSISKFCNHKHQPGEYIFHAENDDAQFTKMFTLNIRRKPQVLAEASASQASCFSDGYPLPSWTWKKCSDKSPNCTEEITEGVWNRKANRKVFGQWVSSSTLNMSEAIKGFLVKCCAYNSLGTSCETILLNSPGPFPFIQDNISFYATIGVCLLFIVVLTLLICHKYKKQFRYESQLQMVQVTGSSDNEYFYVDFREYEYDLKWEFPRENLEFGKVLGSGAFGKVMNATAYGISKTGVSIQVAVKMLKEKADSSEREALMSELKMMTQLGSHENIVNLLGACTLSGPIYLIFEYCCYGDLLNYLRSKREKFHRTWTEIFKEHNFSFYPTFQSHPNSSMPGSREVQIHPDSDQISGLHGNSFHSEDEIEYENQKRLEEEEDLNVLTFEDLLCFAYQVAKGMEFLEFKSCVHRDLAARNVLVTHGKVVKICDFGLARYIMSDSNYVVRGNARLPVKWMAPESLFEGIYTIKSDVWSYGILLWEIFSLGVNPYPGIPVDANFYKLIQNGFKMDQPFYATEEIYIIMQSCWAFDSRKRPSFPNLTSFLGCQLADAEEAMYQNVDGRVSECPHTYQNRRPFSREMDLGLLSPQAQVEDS
- Measurement Context: at 1 µM
Entry rule: numbers only, all in %.

CCN(CC)S(=O)(=O)c1ccc(OC)c(Nc2ncc(-c3ccccc3)o2)c1; 69.9
c1cc(-c2cnn3nc(N4CCOCC4)ccc23)nc(NC2CC2)n1; 37.5
CCn1c(-c2nonc2N)nc2c(C#CC(C)(C)O)nc(OC[C@H](N)c3ccccc3)cc21; 1.02
COc1ccc(-c2cc3c(N)ncnc3o2)cc1; 1.63

Quick one: give measured inhibition for `Fc1ccc(-c2nn3ccccc3c2-c2ccncc2)cc1` 1.27

Dear colleague, please send me the reported inhibition for `CCn1c(-c2nonc2N)nc2cnc(Oc3cccc(NC(=O)c4ccc(N(C)C)cc4)c3)cc21` when you can. 0.83

Look up inhibition of `CN1CCC(n2cnc(-c3ccc(F)cc3)c2-c2ccnc(N)n2)CC1` and report it. 1.95

Please give the documented inhibition of `Nc1nc(-c2cccc(Cl)c2)c(-c2ccc3ncccc3n2)s1` 0.82

Give me measured inhibition, please, for this compound: `CC(C)(CO)CNC(=O)c1ccc2c(c1)/C(=N/Nc1ccc(S(N)(=O)=O)cc1)C(=O)N2` 45.6

Output measured inhibition for this item: `CCn1c(-c2nonc2N)nc2ccccc21` -3.67

Answer with the recorded inhibition of `NS(=O)(=O)c1ccc(N/N=C2\C(=O)Nc3ccc4ncccc4c32)cc1` only. 80.4
